Measured MIC, listed per entry for reference.
Tested on: Escherichia coli ATCC 25922
assayComment: Minimum inhibitory concentration, broth micro-dilution (CLSI), E. coli
Format: cell-based
settings: Escherichia coli, ATCC25922, 22 h, read-out: MIC (μg/mL) E. coli, E. coli ATCC 25922; 35° C., 22 hours
Experimental: Cells were inoculated onto plates of Trypyticase Soy Agar or Luria Agar respectively and grown at 35° C. for 20 hours. Inocula suspensions were prepared by scraping cells into 1 mL of testing media (cation adjusted Mueller Hinton Broth supplemented with 0.002% v/v Tween-80) and diluting to a final OD600 nm of 0.01. Test compounds were prepared in DMSO at a concentration of 10 mg/mL. […]
Report only the number, with the unit µg/mL understood.

# annotated cases, reported MIC shown
structureSmiles	unit	MIC
CCCCc1ccc(C(=O)N[C@@H](CCN)C(=O)N[C@@H](C)C(=O)N(C)[C@@H]2C(=O)N[C@@H](C)C(=O)N[C@H](C(=O)NCC#N)Cc3ccc(OCCN)c(c3)-c3cc2ccc3OCCN)c(C)c1	µg/mL	64
C[C@@H]1NC(=O)[C@@H](N(C)C(=O)[C@H](CCN)NC(=O)c2ccc(C#Cc3ccccc3)cc2F)c2ccc(OCCN)c(c2)-c2cc(ccc2OCCN)C[C@@H](C(=O)NCC#N)NC1=O	µg/mL	0.44

Switching to the query record.
**Query** Under Escherichia coli ATCC 25922: report MIC of `CCCCCCCCc1ccc2c(=O)n([C@@H](CCN)C(=O)N(C)[C@@H]3C(=O)N[C@@H](C)C(=O)N[C@H](C(=O)NCC#N)Cc4ccc(OCCN)c(c4)-c4cc3ccc4OCCN)cnc2c1` .
**Result** 3

----------
targetOfAssay: SpsB (Staphylococcus aureus signal peptidase) (Staphylococcus aureus, UniProt P0A070)
Construct: This assay uses a suspension of Staphylococcus aureus cells as a source of SpsB instead of recombinant SpsB protein; endogenous in cells; host or cells: S. aureus, USA300 background, overexpressing SpsB (whole-cell suspension from frozen pellets)
Sequence (P0A070 whole entry): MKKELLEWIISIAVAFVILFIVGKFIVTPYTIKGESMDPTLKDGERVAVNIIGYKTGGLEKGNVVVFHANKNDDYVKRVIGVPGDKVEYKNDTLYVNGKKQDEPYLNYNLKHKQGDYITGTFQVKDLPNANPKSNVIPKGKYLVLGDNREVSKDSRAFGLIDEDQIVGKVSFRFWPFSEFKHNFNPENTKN
assayComment: cell-based
Assay type: biochemical
settings: SpsB IC50, whole-cell S. aureus (USA300 background, overexpressing SpsB) as SpsB source; fluorogenic peptide substrate, kinetic read 30 min
Parameter: IC50. Scope: all listed entries.
Report as a plain number; the unit nM is understood.

**Query** Name the value of IC50 reported for `CCCCCCCc1cc(F)c(C(=O)N[C@@H](CCN)C(=O)N(C)[C@@H]2C(=O)N[C@@H](C)C(=O)N[C@H](C(=O)NCC#N)Cc3ccc(OCCN)c(c3)-c3cc2ccc3OCCN)c(F)c1` when tested on SpsB (Staphylococcus aureus signal peptidase) (Staphylococcus aureus, UniProt P0A070).
**Result** 0.7

**Query** # assay system SpsB (Staphylococcus aureus signal peptidase) (Staphylococcus aureus, UniProt P0A070): give IC50 of Cc1cc(C2CC2c2ccccc2)ccc1C(=O)N[C@@H](CCN)C(=O)N(C)[C@@H]1C(=O)N[C@@H](C)C(=O)N[C@H](C(=O)NCC#N)Cc2ccc(OCCN)c(c2)-c2cc1ccc2OCCN (mixture of isomers)
**Result** 0.81

**Query** Write IC50 of `CCCCCCCCCCCCCC(=O)N[C@@H](CN)C(=O)N(C)[C@@H]1C(=O)N[C@@H](C)C(=O)N[C@H](C(=O)NCC#N)Cc2ccc(OCCN)c(c2)-c2cc1ccc2OCCN` ; system used: SpsB (Staphylococcus aureus signal peptidase) (Staphylococcus aureus, UniProt P0A070)
**Result** 0.73

----------
targetOfAssay: SpsB (Staphylococcus aureus signal peptidase) (Staphylococcus aureus)
Construct: This assay uses a suspension of Staphylococcus aureus cells as a source of SpsB instead of recombinant SpsB protein; endogenous in cells; host or cells: S. aureus, USA300 background, overexpressing SpsB (whole-cell suspension from frozen pellets)
assayComment: cell-based
Format: biochemical
settings: SpsB IC50, whole-cell S. aureus (USA300 background, overexpressing SpsB) as SpsB source; fluorogenic peptide substrate, kinetic read 30 min
readoutName: pIC50
Answer as the number alone; pIC50 is minus log10 of concentration in mol/L.

**Query** Annotate the molecule `CCCCc1ccc(C(=O)N[C@@H](CCO)C(=O)N(C)[C@@H]2C(=O)N[C@@H](C)C(=O)N[C@H](C(=O)NCC#N)Cc3ccc(OCCN)c(c3)-c3cc2ccc3OCCN)c(C)c1` with its measured pIC50.
**Result** 8.55

**Query** Report pIC50 for `CCCCc1ccc(C(=O)N[C@@H](CCC(N)=O)C(=O)N(C)[C@@H]2C(=O)N[C@@H](C)C(=O)N[C@H](C(=O)NCC#N)Cc3ccc(OCCN)c(c3)-c3cc2ccc3OCCN)c(C)c1`
**Result** 8.20

**Query** Report pIC50, nothing else, for this molecule: `Cc1cc(-c2ccccc2)ccc1C(=O)N[C@@H](CCCN)C(=O)N(C)[C@@H]1C(=O)N[C@@H](C)C(=O)N[C@H](C(=O)NCC#N)Cc2ccc(OCCN)c(c2)-c2cc1ccc2OCCN`
**Result** 9.09

**Query** Write down pIC50 measured for item `CCCCCCCCc1ccc(C)c(C(=O)N[C@@H](CCCCN)C(=O)N(C)[C@@H]2C(=O)N[C@@H](C)C(=O)N[C@H](C(=O)NCC#N)Cc3ccc(OCCN)c(c3)-c3cc2ccc3OCCN)c1`
**Result** 8.96

**Query** // fetch pIC50 given entry `CCCCCCCCc1ccc(C(=O)N[C@@H](CCN)C(=O)N(C)[C@@H]2C(=O)N[C@@H](C)C(=O)N[C@H](C(=O)NCC#N)Cc3ccc(OCCN)c(c3)-c3cc2ccc3OCCN)c(O)c1`
**Result** 9.03

----------
System: Escherichia coli ATCC 25922
assayComment: Minimum inhibitory concentration, broth micro-dilution (CLSI), E. coli
Format: cell-based
settings: Escherichia coli, ATCC25922, 22 h, read-out: MIC (μg/mL) E. coli, E. coli ATCC 25922; 35° C., 22 hours
Overview of reported MIC across a group of compounds:
Respond with the bare value in µg/mL.

compound	targetOfAssay	readoutName	measuredResult
CCCCCCCCCC(=O)N[C@H](C(=O)N[C@@H](CCN)C(=O)N(C)[C@@H]1C(=O)N[C@@H](C)C(=O)N[C@H](C(=O)NCC#N)Cc2ccc(OCCN)c(c2)-c2cc1ccc2OCCN)[C@@H](C)O [Compound 356]	Escherichia coli ATCC 25922	MIC	12

**Query** Answer with reported MIC of C[C@@H]1NC(=O)[C@@H](N(C)C(=O)[C@H](CO)NC(=O)c2ccc(-c3ccc(Cl)cc3)cc2)c2ccc(OCCN)c(c2)-c2cc(ccc2OCCN)C[C@@H](C(=O)NCC#N)NC1=O [Compound 233]
**Result** 32

**Query** Consider the compound C[C@@H]1NC(=O)[C@@H](N(C)C(=O)[C@H](CO)NC(=O)c2cnc(-c3ccc(Cl)cc3)nc2)c2ccc(OCCN)c(c2)-c2cc(ccc2OCCN)C[C@@H](C(=O)NCC#N)NC1=O [Compound 234] . State its measured MIC.
**Result** 32

**Query** Using the record for CCCCc1ccc(C(=O)N[C@@H](CCO)C(=O)N[C@@H](CCN)C(=O)N(C)[C@@H]2C(=O)N[C@@H](C)C(=O)N[C@H](C(=O)NCC#N)Cc3ccc(OCCN)c(c3)-c3cc2ccc3OCCN)c(C)c1 [Compound 382] , state its measured MIC.
**Result** 64

**Query** State, in one line, measured MIC of C[C@@H]1NC(=O)[C@@H](N(C)C(=O)[C@H](CCN)NC(=O)c2ccc(C#Cc3ccccc3)cc2Cl)c2ccc(OCCN)c(c2)-c2cc(ccc2OCCN)C[C@@H](C(=O)NCC#N)NC1=O [Compound 424]
**Result** 0.56

----------
System: Methicillin Resistant Staphylococcus aureus strain USA 300, NRS384
assayComment: Minimum inhibitory concentration, broth micro-dilution (CLSI), S. aureus
Type: cell-based
settings: Staphylococcus aureus, MRSA / NRS 384 / USA300, 22 h, MRSA USA 300 NRS384; 35° C., 22 hours; read-out: MIC (μg/mL) S. aureus
readoutName: MIC (µg/mL)
State the answer as a number, implicitly in µg/mL.

// known answers, use as guide
structureSmiles	MIC (µg/mL)
CCCCCCSc1ccc(C(=O)N[C@@H](CCN)C(=O)N(C)[C@@H]2C(=O)N[C@@H](C)C(=O)N[C@H](C(=O)NCC#N)Cc3ccc(OCCN)c(c3)-c3cc2ccc3OCCN)c(C)c1	0.047
CCCCCCCCCNC(=O)CC(=O)N[C@@H](CCN)C(=O)N(C)[C@@H]1C(=O)N[C@@H](C)C(=O)N[C@H](C(=O)NCC#N)Cc2ccc(OCCN)c(c2)-c2cc1ccc2OCCN	0.13
Cc1cc(-n2cc(C#CC(C)C)cn2)ccc1C(=O)N[C@@H](CCN)C(=O)N(C)[C@@H]1C(=O)N[C@@H](C)C(=O)N[C@H](C(=O)NCC#N)Cc2ccc(OCCN)c(c2)-c2cc1ccc2OCCN	0.063
Cc1cc(-c2ccccc2)ccc1C(=O)N[C@@H](CCCN)C(=O)N(C)[C@@H]1C(=O)N[C@@H](C)C(=O)N[C@H](C(=O)NCC#N)Cc2ccc(OCCN)c(c2)-c2cc1ccc2OCCN	0.25

Below: the item to evaluate.
**Query** For Methicillin Resistant Staphylococcus aureus strain USA 300, NRS384, give MIC of the listed molecule: `C[C@@H]1NC(=O)[C@@H](N(C)C(=O)[C@H](CCN)NC(=O)c2cccc3ccccc23)c2ccc(OCCN)c(c2)-c2cc(ccc2OCCN)C[C@@H](C(=O)NCC#N)NC1=O`
**Result** 2
